test: amyloid nucleation score (Sup35N fusion, yeast selection) (log enrichment); library NNK2; higher = more nucleation; inactive = no reads after selection;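 note: zero at mode of non-aggregating sequences after 7 days selection at 30°C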
Rule: amyloid nucleation score under 0.7 gives Not satisfied, otherwise Satisfied.

The following substances have reported results that may help.
>>> class_name("DLKVWAWKLILFGIMDLGGH")
"Satisfied"
>>> class_name("CHISLTKWCRFRVV")
"Not satisfied"
>>> class_name("GEFSLF")
"Not satisfied"
>>> class_name("KSINNC")
"Not satisfied"
>>> class_name("NVVIRNRFWMNSGRARISAY")
"Not satisfied"
>>> class_name("VFVSWILFTVSPFIIRYRVN")
"Not satisfied"
>>> class_name("RTNVWASDI")
"Not satisfied"
>>> class_name("ILISVRNYIKSEKSRNSYHK")
"Satisfied"
>>> class_name("EYSNFVTNEYEWIVGPTWSS")
"Satisfied"
>>> class_name("WYYGLTPSQACGGEIPCDFQ")
"Satisfied"

Exam item: decide whether the reported amyloid nucleation score for KGSGRSQLSSIVCVFFGQTV is at least 0.7.
Not satisfied

Check if amyloid nucleation score >= 0.7 (inclusive). Item: YSVEYFCHMFSLTCFNKF
Satisfied
